Biological target: human IL-21R expressed on cells (human, UniProt Q9HBE5 20-538)
Sequence (Q9HBE5 20-538 limits assumed): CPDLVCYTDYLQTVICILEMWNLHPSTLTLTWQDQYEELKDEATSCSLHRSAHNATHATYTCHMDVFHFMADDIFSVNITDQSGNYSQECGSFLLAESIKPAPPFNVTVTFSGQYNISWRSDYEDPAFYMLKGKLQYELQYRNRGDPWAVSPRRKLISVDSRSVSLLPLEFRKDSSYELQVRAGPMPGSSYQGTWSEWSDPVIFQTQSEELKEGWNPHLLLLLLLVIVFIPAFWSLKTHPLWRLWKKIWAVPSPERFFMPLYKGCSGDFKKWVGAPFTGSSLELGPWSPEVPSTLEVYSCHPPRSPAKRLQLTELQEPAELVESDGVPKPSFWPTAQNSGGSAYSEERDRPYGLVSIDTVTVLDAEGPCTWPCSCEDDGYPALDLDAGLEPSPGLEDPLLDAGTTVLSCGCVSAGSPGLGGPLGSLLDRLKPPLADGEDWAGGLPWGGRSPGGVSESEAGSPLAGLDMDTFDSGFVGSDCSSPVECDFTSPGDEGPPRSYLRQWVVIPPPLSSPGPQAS
Assay: cell-based or functional assay
result type: IC50, Human IL-21R-TF1 Neutralization Assay (nM)
One number for each entry, in nM.

Task: May I ask what IC50, Human IL-21R-TF1 Neutralization Assay has been recorded for scFv L14 (scFv) scFv: QVQLQESGPGLVKTSETLSLTCAVSGYSISSGYYWGWIRQPPGKGLEWIGSISHTGNTYYNPPLKSRVTISVDTSKNQFSLKLSSVTAADTAVYYCARGGGISRPEYWGKGTLVTVSSGGGGSGGGGSGGGGSALSSELTQDPPVSVALGQTVTLTCQGDSLRTYYASWYQQKSGQAPILLLYGKHKRPSGIPDRFSGSTSGDTASLTITGAQAEDEADYYCMARSRKGNPHVLFGGGTQLTVL ?
Output: 33.5
